# tested.target: Muscarinic acetylcholine receptor M4 (Homo sapiens)
# assay.method.text: Positive allosteric modulation at human M4 mAChR expressed in Flp-In-CHO cells co-expressing CAMYEL biosensor assessed as change in maximum ACh-mediated response at 10 uM incubated for 5 mins by BRET assay relative to control
# Assay type: cell-based
Emax vs 20%: at or above is 1, below is -1.

Some entries whose results are on file:
> print(dat)
                                smiles.data                             tested.target  label
1  CN1Cc2ccc(-c3ccccc3-c3cnn(CC4CCCC4)c3)cc2C1=O  Muscarinic acetylcholine receptor M4 (Homo sapiens)      1
2  Cc1ccc(-c2cnn(C)c2)c(-c2ccc3c(c2)C(=O)N(C)C3)n1  Muscarinic acetylcholine receptor M4 (Homo sapiens)      1
3  Cc1ccc(-c2cn(CC3CCCC3)nn2)c(-c2ccc3c(c2)C(=O)N(C)C3)n1  Muscarinic acetylcholine receptor M4 (Homo sapiens)     -1

Answer whether Emax of Cc1ccc(-n2cc(CC3CCCC3)nn2)c(-c2ccc3c(c2)C(=O)N(C)C3)n1 is greater than or equal to 20%. -1

Textbook exercise: given the entry Cc1ccc(-c2cnn(CC3CCCC3)c2)c(-c2ccc3c(c2)NC(=O)C3)n1 , state whether its Emax is greater than or equal to 20%. 1

// inclusive: Emax at least 20%? input: CN1Cc2ccc(-c3nccnc3-c3cnn(CC4CCCC4)c3)cc2C1=O 1
